System: 134 cancer cell lines
Assay: Cell viability assay (ATPlite, 72 hours), IC50 on cancer cell line panel
Conditions: Homo sapiens, SU-DHL-1, read-out: IC50 in cell proliferation assay, cell line SU-DHL-1 (NPM1-ALK)
measured.metric: IC50

CN1CCN(c2ccc(C(=O)Nc3n[nH]c4ccc(Cc5cc(F)cc(F)c5)cc34)c(NC3CCOCC3)c2)CC1: 607 nM
CCN1CCN(c2ccc(Nc3cc(N(C)C(=O)Nc4c(Cl)c(OC)cc(OC)c4Cl)ncn3)cc2)CC1: > 3160 nM
COC(=O)N[C@@H](C)CNc1nccc(-c2cn(C(C)C)nc2-c2cc(Cl)cc(NS(C)(=O)=O)c2F)n1: 2150 nM

Now for the compound whose IC50 we want.
For the compound Cc1cc(Nc2ncc(Cl)c(Nc3ccccc3S(=O)(=O)C(C)C)n2)c(OC(C)C)cc1C1CCNCC1 , give its measured IC50 value.
192 nM
